Data provenance: patent US20190359687A1

For each of the binders below, state its fluorescence intensity.
TARGET_UNDER_TEST: T1, human glycophorin A in the red blood cell membrane (human, UniProt P02724 20-150)
T1 construct: whole, on cells; used for intact RBC, isolated RBC membranes and transfected cells; the assay field tells which; also called GPA; hGPA
T1 sequence (looked up): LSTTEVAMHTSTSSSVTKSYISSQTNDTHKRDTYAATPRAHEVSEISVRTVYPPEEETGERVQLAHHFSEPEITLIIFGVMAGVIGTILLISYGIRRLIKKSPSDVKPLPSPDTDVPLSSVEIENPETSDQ
TEST_DESCRIPTION: FACS, RBC Hu02
The response must contain the number and no unit.

Looking up Hu6C12-3 (antibody, V domains shown, IgG format; VH.1c + Vk.1) VH: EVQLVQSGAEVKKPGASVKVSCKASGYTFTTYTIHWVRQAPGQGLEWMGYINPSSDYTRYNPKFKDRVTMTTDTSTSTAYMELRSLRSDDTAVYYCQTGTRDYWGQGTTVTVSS VL: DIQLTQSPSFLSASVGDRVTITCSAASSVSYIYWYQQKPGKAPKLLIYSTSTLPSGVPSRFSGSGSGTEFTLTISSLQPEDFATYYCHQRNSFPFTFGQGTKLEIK , I found its fluorescence intensity recorded as 739

Looking up Hu6C12-7 (antibody, V domains shown, IgG format; VH.1g + Vk.1) VH: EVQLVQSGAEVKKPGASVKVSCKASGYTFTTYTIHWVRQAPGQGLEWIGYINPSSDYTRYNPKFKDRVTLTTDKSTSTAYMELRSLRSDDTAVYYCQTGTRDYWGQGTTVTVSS VL: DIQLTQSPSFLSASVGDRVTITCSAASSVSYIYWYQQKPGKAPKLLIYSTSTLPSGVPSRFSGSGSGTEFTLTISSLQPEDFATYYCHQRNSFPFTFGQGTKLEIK , I found its fluorescence intensity recorded as 945

Looking up Hu6C12-14 (antibody, V domains shown, IgG format; VH.1e + Vk.1a) VH: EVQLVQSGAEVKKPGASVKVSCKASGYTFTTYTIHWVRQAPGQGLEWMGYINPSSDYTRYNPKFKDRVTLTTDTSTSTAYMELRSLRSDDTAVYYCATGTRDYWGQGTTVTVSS VL: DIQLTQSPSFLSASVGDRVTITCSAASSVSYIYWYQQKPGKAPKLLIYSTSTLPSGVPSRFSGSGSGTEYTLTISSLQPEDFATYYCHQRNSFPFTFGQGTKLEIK , I found its fluorescence intensity recorded as 298

Looking up Hu6C12-13 (antibody, V domains shown, IgG format; VH.1d + Vk.1a) VH: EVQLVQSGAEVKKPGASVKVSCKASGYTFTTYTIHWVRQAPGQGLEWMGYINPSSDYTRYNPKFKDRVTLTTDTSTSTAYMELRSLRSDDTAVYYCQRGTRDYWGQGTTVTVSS VL: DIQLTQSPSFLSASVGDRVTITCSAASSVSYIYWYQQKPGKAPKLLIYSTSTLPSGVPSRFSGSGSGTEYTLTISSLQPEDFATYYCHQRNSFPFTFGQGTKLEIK , I found its fluorescence intensity recorded as 3

Looking up Hu6C12-1 (antibody, V domains shown, IgG format; VH.1a + Vk.1) VH: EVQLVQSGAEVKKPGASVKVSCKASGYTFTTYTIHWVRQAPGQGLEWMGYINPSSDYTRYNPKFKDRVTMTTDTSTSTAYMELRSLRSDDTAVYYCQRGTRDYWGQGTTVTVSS VL: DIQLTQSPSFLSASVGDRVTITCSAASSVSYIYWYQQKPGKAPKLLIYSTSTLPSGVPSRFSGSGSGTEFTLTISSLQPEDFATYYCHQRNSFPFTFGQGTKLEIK , I found its fluorescence intensity recorded as 3

Looking up Hu6C12-5 (antibody, V domains shown, IgG format; VH.1e + Vk.1) VH: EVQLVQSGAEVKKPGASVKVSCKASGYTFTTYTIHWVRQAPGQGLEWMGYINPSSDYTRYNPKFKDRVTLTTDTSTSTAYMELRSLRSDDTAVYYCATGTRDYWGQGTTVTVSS VL: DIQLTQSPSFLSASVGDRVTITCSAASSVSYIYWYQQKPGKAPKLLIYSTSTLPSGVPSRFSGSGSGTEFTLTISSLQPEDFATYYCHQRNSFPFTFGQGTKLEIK , I found its fluorescence intensity recorded as 625

Looking up Hu6C12-22 (antibody, V domains shown, IgG format; VH.1e + Vk.1b) VH: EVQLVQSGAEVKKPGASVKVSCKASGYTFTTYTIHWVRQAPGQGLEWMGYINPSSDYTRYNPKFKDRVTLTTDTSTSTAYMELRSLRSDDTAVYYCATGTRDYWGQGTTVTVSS VL: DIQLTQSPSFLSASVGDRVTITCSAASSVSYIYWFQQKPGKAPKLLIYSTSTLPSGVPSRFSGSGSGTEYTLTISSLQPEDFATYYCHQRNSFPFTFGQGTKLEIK , I found its fluorescence intensity recorded as 1170

Looking up Hu6C12-12 (antibody, V domains shown, IgG format; VH.1c + Vk.1a) VH: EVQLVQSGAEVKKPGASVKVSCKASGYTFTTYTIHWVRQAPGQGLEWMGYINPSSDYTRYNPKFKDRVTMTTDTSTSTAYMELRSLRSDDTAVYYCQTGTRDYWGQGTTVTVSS VL: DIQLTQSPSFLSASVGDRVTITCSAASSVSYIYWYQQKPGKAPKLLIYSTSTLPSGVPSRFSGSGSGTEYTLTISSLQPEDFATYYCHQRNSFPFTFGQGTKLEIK , I found its fluorescence intensity recorded as 393
